Tested on: NCI-H460 lung
Assay Explanation: NCI-60 one-dose screen, 48 h
Applied Conditions: 10 µM unless noted
About 83,000 compounds went through this panel and 20% of them were active in at least one assay; those are over-represented in the sample as a whole. The source made the active and inactive calls. How the source made its calls: active means growth percent below 10; inactive means the rest.
Returns: one label drawn from t for active, f for inactive

Please review the entries below; each comes with its answer.
Cc1cc(C(=O)O)c(C)cc1C(=O)O f
Cn1cc(-c2csc(-c3c[nH]c4ncccc34)n2)c2cc(F)cnc21 f
O=C1c2nsnc2C(=O)c2c(F)c(F)c(F)c(F)c21 t
CCN(CC)CCOc1ccc(C2=C(c3ccccc3)CCc3cc(OC)ccc32)cc1 t

Now consider the entry below.
Which outcome was entered for the compound "S=C(Nc1ccc(C2=NCCN2)cc1)Nc1ccc(C2=NCCN2)cc1" in this test?
f

* * *

System: MDA-MB-435 melanoma
Assay Explanation: NCI-60 one-dose screen, 48 h
Applied Conditions: 10 µM unless noted
Compounds without any hit were thinned out: in the full panel of roughly 83,000, 20% have a hit. Active and inactive are the calls of the source. Rule for the calls: active = growth percent below 10; inactive = the rest.
# output must be one of active, inactive

Molecule	Group
COc1cccc(-c2nnc(N)o2)c1	inactive
COc1cc(/C=C/C(=O)Nc2cccnc2Nc2cc(OC)c(OC)c(OC)c2)cc(OC)c1OC	inactive
CCOc1ccccc1C(=O)OCC(=O)Nc1cccc(S(=O)(=O)N(C)C)c1	inactive
O=C1/C(=C/c2ccc([N+](=O)[O-])o2)Oc2ccc(Br)cc21	active
Cc1cc(NCCCNc2ccnc3cc(Cl)ccc23)nc(N2CCN(C)CC2)n1	inactive

Identify the outcome logged in this assay for the molecule shown: "CC1(C)OC(=O)C(=Cc2ccccc2Br)C(=O)O1"
inactive

Answer briefly: the call reported for "COc1ccc2c(c1)[nH]c(=O)c1c3cc(OC)c(OC)cc3cn21" in this assay.
active

Fill in: this test's call for CC[C@]1(O)CC2CN(CCc3c([nH]c4ccccc34)[C@@](C(=O)OC)(c3cc4c(cc3OC)N(C)[C@H]3[C@@](O)(C(=O)OC)[C@H](OC(C)=O)[C@]5(CC)C=CCN6CC[C@]43[C@@H]65)C2)C1 (some centres not stated) is ___
active

Name the outcome recorded for "Cc1nnc(Nc2ccc(NC(=O)Nc3ccc(Cl)cc3)cc2)c2ccccc12" in the assay.
active

Tell me the assay call for "COC(=O)CC1=C(C)/C(=C/c2[nH]c(-c3ccc[nH]3)cc2OC)N=C1C" please.
active

Assay result, entry "O=C1NC(=O)/C(=C\c2ccccc2)C2=C1CCCC2" — outcome?
active

Field: outcome | Entry: COc1cc(/C=C2\CCC/C(=C\c3ccc(OCC4CO4)c(OC)c3)C2=O)ccc1OCC1CO1 (configuration not stated)
active

* * *

Test system: OVCAR-8 ovarian
Assay Explanation: NCI-60 one-dose screen, 48 h
Applied Conditions: 10 µM unless noted
This is part of a sample that, as a whole, favours compounds with a hit. Of some 83,000 tested, about 20% had one in any assay. Active and inactive are the calls of the source. Rule for the calls: active = growth percent below 10; inactive = the rest.
Response enum: active, inactive

Molecule	Group
COC1CC2CCC(C)C(O)(O2)C(=O)C(=O)N2CCCCC2C(=O)OC(C(C)CC2CCC(O)C(OC)C2)CC(=O)C(C)C=C(C)C(O)C(OC)C(=O)C(C)CC(C)/C=C/C=C/C=C1C (centres undefined)	inactive

Entry "COc1ccc(Cn2cc3c(c2-c2ccccc2)CCc2cncnc2-3)cc1" : call = ?
inactive

Entry "Cc1cc(NC(=O)c2ccc(N)cc2)ccc1N=Nc1ccc2c(O)c(N=Nc3ccc(Cl)c(S(=O)(=O)O)c3)c(S(=O)(=O)O)cc2c1" : call = ?
inactive

Assay outcome for "Cc1cc([N+](=O)[O-])c(C)cc1C(=O)O" : what was it?
inactive

Field: outcome | Entry: CC(c1ccccn1)C(C)(O)C(C)c1ccccn1 (centres undefined)
inactive

What outcome does the record of this test show for CC(C)(C)c1ccc(C(O)CCCN2CCC(C(O)(c3ccccc3)c3ccccc3)CC2)cc1 (centres undefined) ?
active

Which outcome did this test record for the molecule "NC(N)=NC(N)=NCCCc1ccccc1" ?
inactive

Outcome? "NC(=O)c1ccccc1NC(=O)c1ccccc1Cl"
inactive

What was the test verdict on COc1cc(C2C=C(c3ccc(C)cc3)Nc3nc(SC)[nH]c(=O)c32)ccc1Oc1ccnc2cc(Cl)ccc12 (centres undefined) ?
inactive
